Kindly state drug sensitivity score for each of the entries shown.
- System: Vero E6
- measurement.protocol: drug sensitivity score (DSS) for viability; higher = more toxic; extreme values may be limits of the assay
- measurement.setup: 72 h
Reply: number alone, nothing else.

Prompt: Recall the reported drug sensitivity score of "O=c1[nH]c(CCl)nc2sc3c(c12)CCCC3" when tested on Vero E6.
Completion: 0

Prompt: Recall the reported drug sensitivity score of Cc1nccc2[nH]c(=O)ccc12 [medorinone] when tested on Vero E6.
Completion: 0

Prompt: Recall the reported drug sensitivity score of O=C(Nc1cc(-c2ccccc2)nn1-c1ccccc1)c1ccc([N+](=O)[O-])cc1 [VU29] when tested on Vero E6.
Completion: 0.2

Prompt: Recall the reported drug sensitivity score of O=c1c(O)c(-c2cc(O)c(O)c(O)c2)oc2cc(O)cc(O)c12 [myricetin] when tested on Vero E6.
Completion: 0

Prompt: Recall the reported drug sensitivity score of C[C@H](Cc1cc2c(c(C(N)=O)c1)N(CCCO)CC2)NCCOc1ccccc1OCC(F)(F)F [silodosin] when tested on Vero E6.
Completion: 0

Prompt: Recall the reported drug sensitivity score of C=C[C@]1(C)C[C@@H](OC(=O)CS[C@@H]2C[C@H]3CC[C@@H](C2)N3C)[C@]2(C)[C@H](C)CC[C@]3(CCC(=O)[C@H]32)[C@@H](C)[C@@H]1O [retapamulin] when tested on Vero E6.
Completion: 0

Prompt: Recall the reported drug sensitivity score of CSc1ccccc1OCC(O)CNC(C)C (centres undefined) [tiprenolol] when tested on Vero E6.
Completion: 0.3

Prompt: Recall the reported drug sensitivity score of "c1ccc(-c2n[nH]cc2-c2ccnc3ccccc23)nc1" when tested on Vero E6.
Completion: 0

Prompt: Recall the reported drug sensitivity score of CNc1nc(NCc2ccc(NS(C)(=O)=O)cc2Cl)cc(-c2ccccn2)n1 [TC-G-1008] when tested on Vero E6.
Completion: 0.4

====

- Test system: HepG2
- measurement.protocol: cell viability relative to DMSO; higher = less toxic
- measurement.setup: 72 h; 10000 nM
Kindly state cell viability for each of the entries shown.
Numeric answer only, unit % assumed.

Prompt: Quick one: give measured cell viability for "CCN1C[C@H](C)n2c(c(O)c3c(=O)n(Cc4ccc(F)c(Cl)c4)nc(C(=O)NC)c32)C1=O"
Completion: 98.4

Prompt: Quick one: give measured cell viability for CC1/C=C/C=C/C=C/C=C/C=C/C=C/C=C/C(OC2O[C@H](C)[C@@H](O)[C@H](N)[C@@H]2O)CC(O)C(C(=O)O)C(O)CC(=O)CC(O)CC(O)CC(O)CC(=O)CCCC(=O)CC(=O)OC1C(C)CC(C)C(O)CC(=O)c1ccc(N)cc1 (stereo partly drawn)
Completion: 98.6

Prompt: Quick one: give measured cell viability for "Cc1ncc(CN2CC=C(c3ccccc3)CC2)c(N)n1"
Completion: 112

Prompt: Quick one: give measured cell viability for "O=c1[nH]c(CCl)nc2sc3c(c12)CCCC3"
Completion: 81.8

Prompt: Quick one: give measured cell viability for "CC(C)OC(=O)c1cc2c(OC[C@@H](O)CNC(C)(C)C)cccc2[nH]1"
Completion: 90.4

Prompt: Quick one: give measured cell viability for "NC(N)=Nc1nc(CSCC/C(N)=N/S(N)(=O)=O)cs1"
Completion: 85.4

Prompt: Quick one: give measured cell viability for Cc1c(C)c2c(c(C)c1O)CCC(C)(C(=O)O)O2 (stereo not drawn)
Completion: 98.8

Prompt: Quick one: give measured cell viability for "O=C(NC1CCOCC1)c1ccc(-c2cc(-c3c[nH]nc3-c3ccccn3)ccn2)cc1"
Completion: 93.8

Values were extracted from the supplement of paper PMC13380429.
